Below: a set of entries, each annotated with reported protein stability index.
B1: ZNF449 (parent)
chain: TLHQRTHTEERPFKCNYCGKSFRQ

variants of: B1; assay: protein stability index of a GFP-peptide fusion (GPS, HEK-293T) (PSI 1-6); higher = more stable; details: c terminus: a fixed tail appended;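 note: lentivirally expressed fusions sorted by FACS into six bins by GFP to DsRed ratio, PSI derived from sequencing read proportions per bin multiplied by bin number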
READOUT KIND: protein stability index

[[record]]
variant_name = "R11K"
readout_kind = "protein stability index"
measured_value = 2.5

[[record]]
variant_name = "L2P"
readout_kind = "protein stability index"
measured_value = 2.88

[[record]]
variant_name = "T8D"
readout_kind = "protein stability index"
measured_value = 2.62

[[record]]
variant_name = "R11T"
readout_kind = "protein stability index"
measured_value = 2.33

[[record]]
variant_name = "E9H"
readout_kind = "protein stability index"
measured_value = 2.71

[[record]]
variant_name = "Q4A"
readout_kind = "protein stability index"
measured_value = 2.08

[[record]]
variant_name = "N16I"
readout_kind = "protein stability index"
measured_value = 2.27

[[record]]
variant_name = "H7Q"
readout_kind = "protein stability index"
measured_value = 2.88

[[record]]
variant_name = "C15M"
readout_kind = "protein stability index"
measured_value = 2.82

[[record]]
variant_name = "E10F"
readout_kind = "protein stability index"
measured_value = 1.48

[[record]]
variant_name = "E9C"
readout_kind = "protein stability index"
measured_value = 2.4

[[record]]
variant_name = "N16D"
readout_kind = "protein stability index"
measured_value = 2.16

[[record]]
variant_name = "Q4C"
readout_kind = "protein stability index"
measured_value = 3.33

[[record]]
variant_name = "E9K"
readout_kind = "protein stability index"
measured_value = 3.15

[[record]]
variant_name = "K20F"
readout_kind = "protein stability index"
measured_value = 1.78

[[record]]
variant_name = "L2H"
readout_kind = "protein stability index"
measured_value = 2.45

[[record]]
variant_name = "Q4G"
readout_kind = "protein stability index"
measured_value = 2.12

[[record]]
variant_name = "R5S"
readout_kind = "protein stability index"
measured_value = 2.45

[[record]]
variant_name = "C18Y"
readout_kind = "protein stability index"
measured_value = 2.43

[[record]]
variant_name = "L2M"
readout_kind = "protein stability index"
measured_value = 2.58

[[record]]
variant_name = "H3Y"
readout_kind = "protein stability index"
measured_value = 2.15

[[record]]
variant_name = "S21L"
readout_kind = "protein stability index"
measured_value = 3.6

